Tested on: Fibroblast
protocolDescription: Multiplex assay against human fibroblast
Assay type: toxicity, cell-based
measurementSetup: 12 h, 1 µM, compound concentration 1 uM, replicate 2
readoutKind: Total Cell Count

[
  {
    "molecule": "CN1C2CCC1CC(OC(c1ccc(F)cc1)c1ccc(F)cc1)C2.Cl (stereo not drawn)",
    "reportedResult": 69
  },
  {
    "molecule": "COc1cccc2cc(-c3nc([C@H]4CC[C@H](C(=O)O)CC4)n4ncnc(N)c34)[nH]c12",
    "reportedResult": 98
  },
  {
    "molecule": "COc1cc2ncnc(Nc3ccc(F)c(Cl)c3)c2cc1NC(=O)/C=C/CN1CCCCC1 [DACOMITINIB ANHYDROUS]",
    "reportedResult": 103
  }
]

* * *

Tested on: Fibroblast
protocolDescription: Multiplex assay against human fibroblast
Assay type: toxicity, cell-based
measurementSetup: 12 h, 1 µM, compound concentration 1 uM, replicate 2
readoutKind: Population Apoptotic (%)

[
  {
    "compound": "O=C(Nc1ccc(-n2nc(-c3cccnc3)cc2C(F)(F)F)cn1)c1ccc(-c2ccccc2)c(F)c1",
    "reportedResult": "50%"
  },
  {
    "compound": "CCn1cc(-c2ccnc3[nH]c(-c4cccc(CN(C)C)c4)cc23)c(-c2ccc(NC(=O)N(C)C)cc2)n1",
    "reportedResult": "25%"
  },
  {
    "compound": "Cc1ccc2nc(NCCN)c3ncc(C)n3c2c1.O=C(O)C(F)(F)F.O=C(O)C(F)(F)F",
    "reportedResult": "50%"
  },
  {
    "compound": "CN1C2CCC1CC(OC(c1ccc(F)cc1)c1ccc(F)cc1)C2.Cl (stereo unspecified)",
    "reportedResult": "100%"
  },
  {
    "compound": "Cl.O=C(c1ccc(Nc2nccc(-c3cc4ccccc4s3)n2)cc1)N1CCC(N2CCCC2)CC1",
    "reportedResult": "55%"
  },
  {
    "compound": "O=C(Nc1ccc(Cl)cc1)Nc1cccc(-c2cccc(N3CCCC3)n2)c1",
    "reportedResult": "25%"
  },
  {
    "compound": "CNC(=O)c1ccc(Nc2nc(OC3CCCC3)c3c(-c4ccc5nc(C)oc5c4)c[nH]c3n2)c(OC)c1",
    "reportedResult": "33%"
  },
  {
    "compound": "COc1cc(N2CCN(C)CC2)ccc1Nc1ncc2c(n1)N(C)c1ccccc1C(=O)N2C",
    "reportedResult": "40%"
  },
  {
    "compound": "CNc1cc(Oc2cc(C(=O)Nc3cc(N4CCN(C)CC4)cc(C(F)(F)F)c3)ccc2C)ncn1",
    "reportedResult": "54%"
  },
  {
    "compound": "Cl.Oc1ccc2c3c1O[C@H]1c4[nH]c5c(c4C[C@@]4(O)[C@@H](C2)N(CC2CC2)CC[C@]314)C[C@@]1(O)[C@H]2Cc3ccc(O)c4c3[C@@]1(CCN2CC1CC1)[C@H]5O4",
    "reportedResult": "42%"
  },
  {
    "compound": "CN(C)C(=O)C(CCN1CCC(O)(c2ccc(Cl)cc2)CC1)(c1ccccc1)c1ccccc1.Cl [LOPERAMIDE HYDROCHLORIDE]",
    "reportedResult": "25%"
  }
]

* * *

System: HEK-293T
protocolDescription: Multiplex assay against HEK293T
Format: toxicity, cell-based
measurementSetup: human, 24 h, 10 µM, compound concentration 10 uM, replicate 2

[
  {
    "molecule": "O=C(Nc1cccnn1)N1CCC(=Cc2cccc(Oc3ccc(C(F)(F)F)cn3)c2)CC1",
    "testedOn": "HEK-293T",
    "Total Cell Count": 3029
  },
  {
    "molecule": "O=C(Nc1ccc(-c2ccnc(Nc3ccc(N4CCOCC4)cc3)n2)cc1)[C@@H]1CCCN1",
    "testedOn": "HEK-293T",
    "Total Cell Count": 186
  },
  {
    "molecule": "Cc1cn(-c2cc(NC(=O)c3ccc(C)c(Nc4nccc(-c5cccnc5)n4)c3)cc(C(F)(F)F)c2)cn1",
    "testedOn": "HEK-293T",
    "Total Cell Count": 209
  },
  {
    "molecule": "O=C(Cc1ccc(-c2ccc(OCCN3CCOCC3)cc2)cn1)NCc1ccccc1",
    "testedOn": "HEK-293T",
    "Total Cell Count": 160
  },
  {
    "molecule": "CNc1cc(Oc2cc(C(=O)Nc3cc(N4CCN(C)CC4)cc(C(F)(F)F)c3)ccc2C)ncn1",
    "testedOn": "HEK-293T",
    "Total Cell Count": 126
  },
  {
    "molecule": "CCCn1c(=O)c2[nH]c(-c3cnn(Cc4cccc(C(F)(F)F)c4)c3)nc2n(CC)c1=O",
    "testedOn": "HEK-293T",
    "Total Cell Count": 424
  },
  {
    "molecule": "CN1CCC(=C2c3ccccc3CC(=O)c3sccc32)CC1.O=C(O)/C=C/C(=O)O [KETOTIFEN FUMARATE]",
    "testedOn": "HEK-293T",
    "Total Cell Count": 180
  },
  {
    "molecule": "Cc1ccc2nc(NCCN)c3ncc(C)n3c2c1.O=C(O)C(F)(F)F.O=C(O)C(F)(F)F",
    "testedOn": "HEK-293T",
    "Total Cell Count": 858
  },
  {
    "molecule": "O=C1N/C(=N/c2ccccc2F)S/C1=C\\c1ccc(C(=O)O)cc1",
    "testedOn": "HEK-293T",
    "Total Cell Count": 275
  },
  {
    "molecule": "Cc1cc(C)c(S(=O)(=O)N(Cc2ccc(-c3cccc(S(C)(=O)=O)c3)cc2)Cc2ccc(C(F)(F)F)o2)c(C)c1",
    "testedOn": "HEK-293T",
    "Total Cell Count": 187
  },
  {
    "molecule": "CCn1c(=O)c(-c2ccc(-c3cncs3)cc2Cl)cc2cnc(Nc3ccc(N4CCN(C)CC4)cc3)nc21",
    "testedOn": "HEK-293T",
    "Total Cell Count": 177
  },
  {
    "molecule": "C=CCn1c(=O)c2cnc(Nc3ccc(N4CCN(C)CC4)cc3)nc2n1-c1cccc(C(C)(C)O)n1",
    "testedOn": "HEK-293T",
    "Total Cell Count": 1042
  },
  {
    "molecule": "CN1C2CCC1CC(OC(c1ccc(F)cc1)c1ccc(F)cc1)C2.Cl (configuration not stated)",
    "testedOn": "HEK-293T",
    "Total Cell Count": 190
  },
  {
    "molecule": "COC(=N)c1nc2ccc3ncnc(Nc4ccc(OC)cc4F)c3c2s1",
    "testedOn": "HEK-293T",
    "Total Cell Count": 2058
  },
  {
    "molecule": "Cl.Oc1ccc2c3c1O[C@H]1c4[nH]c5c(c4C[C@@]4(O)[C@@H](C2)N(CC2CC2)CC[C@]314)C[C@@]1(O)[C@H]2Cc3ccc(O)c4c3[C@@]1(CCN2CC1CC1)[C@H]5O4",
    "testedOn": "HEK-293T",
    "Total Cell Count": 399
  },
  {
    "molecule": "CN1CCN(C(=O)C(C)(C)c2ccc(C(=O)Nc3cn4cc(-c5cc(C(C)(C)C)cc(C(C)(C)C)c5)ccc4n3)cc2)CC1",
    "testedOn": "HEK-293T",
    "Total Cell Count": 947
  },
  {
    "molecule": "COc1cc(N2CCN(C)CC2)ccc1Nc1ncc2c(n1)N(C)c1ccccc1C(=O)N2C",
    "testedOn": "HEK-293T",
    "Total Cell Count": 195
  }
]

* * *

Test system: Fibroblast
protocolDescription: Multiplex assay against human fibroblast
Format: toxicity, cell-based
measurementSetup: 48 h, 10 µM, compound concentration 10 uM, replicate 1

[
  {
    "compound": "CCCn1c(=O)c2[nH]c(-c3cnn(Cc4cccc(C(F)(F)F)c4)c3)nc2n(CC)c1=O",
    "Population Fragmented Nuclei (%)": 61
  },
  {
    "compound": "CCc1cccc(CC)c1NC(=O)c1nn(C)c2c1CCc1cnc(Nc3ccc(C(=O)NC4CCN(C)CC4)cc3OC(F)(F)F)nc1-2",
    "Population Fragmented Nuclei (%)": 31
  },
  {
    "compound": "Cl.O=c1c2cccn2c2ccccc2n1CCCN1CCC(c2ccc(Cl)cc2)CC1",
    "Population Fragmented Nuclei (%)": 28
  },
  {
    "compound": "CCOc1cc(C(=O)N2CCC(N3CCN(C)CC3)CC2)ccc1Nc1ncc2c(n1)N(C1CCCC1)c1ccccc1C(=O)N2C",
    "Population Fragmented Nuclei (%)": 35
  },
  {
    "compound": "CCN1CCN(Cc2ccc(Nc3ncc(F)c(-c4cc(F)c5nc(C)n(C(C)C)c5c4)n3)nc2)CC1.CS(=O)(=O)O",
    "Population Fragmented Nuclei (%)": 69
  },
  {
    "compound": "CCOc1cc2ncc(C#N)c(Nc3ccc(OCc4ccccn4)c(Cl)c3)c2cc1NC(=O)/C=C/CN(C)C",
    "Population Fragmented Nuclei (%)": 28
  },
  {
    "compound": "CN1CCC(=C2c3ccccc3CC(=O)c3sccc32)CC1.O=C(O)/C=C/C(=O)O [KETOTIFEN FUMARATE]",
    "Population Fragmented Nuclei (%)": 41
  },
  {
    "compound": "Cc1cc(C)c(S(=O)(=O)N(Cc2ccc(-c3cccc(S(C)(=O)=O)c3)cc2)Cc2ccc(C(F)(F)F)o2)c(C)c1",
    "Population Fragmented Nuclei (%)": 47
  }
]
